# Assayed System: ACC-2D6.3 channel (Caenorhabditis elegans)
# Assay Comment: cell-based
# Protocol Conditions: IC50 (range or bound)
Quantity: IC50

Prompt line: // map O=C1C[C@@H]2OCC=C3CN4CC[C@]56c7ccccc7N1[C@H]5[C@H]2[C@H]3C[C@H]46 [strychnine] to recorded IC50 (system: ACC-2D6.3 channel (Caenorhabditis elegans))
Response line: ~10 µM

* * *

# Assayed System: ACC-2D6.3 channel (Caenorhabditis elegans, UniProt Q18812)
# Sequence (Q18812 whole entry, looked up): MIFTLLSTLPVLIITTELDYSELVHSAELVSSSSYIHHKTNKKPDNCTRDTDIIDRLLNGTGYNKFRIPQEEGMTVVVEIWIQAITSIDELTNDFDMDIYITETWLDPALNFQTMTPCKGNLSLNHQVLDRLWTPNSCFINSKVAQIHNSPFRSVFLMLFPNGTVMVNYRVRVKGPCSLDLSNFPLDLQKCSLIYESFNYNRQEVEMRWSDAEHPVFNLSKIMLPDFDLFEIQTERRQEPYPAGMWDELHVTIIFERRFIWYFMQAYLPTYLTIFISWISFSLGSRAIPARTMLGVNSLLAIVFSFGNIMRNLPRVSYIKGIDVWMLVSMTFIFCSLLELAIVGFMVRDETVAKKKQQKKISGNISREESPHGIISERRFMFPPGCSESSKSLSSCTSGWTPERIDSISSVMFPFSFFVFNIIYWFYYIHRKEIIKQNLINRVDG
# Assay Comment: cell-based
pIC50: −log10 of the molar value.
// reported pIC50 per item

# Compound, Recorded Result
rows = [
    ("CO[C@H]1CC=C2CCN3CCC4=C(CC(=O)OC4)[C@]23C1 [dβe, dihydro-β-erythroidine]", "~5.00"),
]

Consider the record given below.
Prompt line: Need pIC50 of `O=c1cccc2n1C[C@@H]1CNC[C@H]2C1` , thanks.
Response line: ~4.00

* * *

# Assayed System: ACC-2 Y100L (Caenorhabditis elegans, UniProt Q18812, Y100L)
# Sequence (Q18812 whole entry Y100L, looked up): as the sequence (Q18812 whole entry, looked up) above, with Y100L counted along it
# Assay Comment: Voltage-clamp of Xenopus oocytes expressing ACC-2 mutant Y100L
Quantity: pEC50
Scale: pEC50 equals -log10([C]), with [C] in mol/L.

Prompt line: Need pEC50 of `CC(=O)OCC[N+](C)(C)C` , thanks.
Response line: 3.45

* * *

# Assayed System: ACC-1G6.4 channel (Caenorhabditis elegans)
# Construct: Agonist: percentage of maximal acetylcholine-elicited response; other: compound at 0.1 mM; Agonist: percentage of maximal acetylcholine-elicited response; other: compound at 0.2 mM; other: compound at 0.4 mM; other: compound at 0.8 mM; Agonist: percentage of maxim
# Assay Comment: Two-electrode voltage-clamp of Xenopus oocytes expressing ACC-1G6.4 homomeric channel
# Assay type: cell-based, C. elegans
pIC50: −log10 of the molar value.
Quantity: pIC50

# Compound, pIC50
rows = [
    ("O=c1cccc2n1C[C@@H]1CNC[C@H]2C1", "~5.00"),
]

Prompt line: Need pIC50 of CN1CCCC1c1cccnc1 (centres unmarked) , thanks.
Response line: ~4.00

* * *

# Assayed System: ACC-1G6.4 channel (Caenorhabditis elegans)
# Construct: Agonist: percentage of maximal acetylcholine-elicited response; other: compound at 0.1 mM; Agonist: percentage of maximal acetylcholine-elicited response; other: compound at 0.2 mM; other: compound at 0.4 mM; other: compound at 0.8 mM; Agonist: percentage of maxim
# Assay Comment: Two-electrode voltage-clamp of Xenopus oocytes expressing ACC-1G6.4 homomeric channel
# Assay type: cell-based, C. elegans
# Protocol Conditions: read-out: Agonist: percentage of maximal acetylcholine-elicited response
# Excerpt: For capped cRNA synthesis, cDNAs were subcloned into the pT7N vector, which contains a T7 RNA polymerase promoter, the 5′- and 3′-UTR of Xenopus laevis beta-globin, and an encoded poly(A+) tail (Cary R B, Klymkowsky M W, Evans R M, Domingo A, Dent J A, Backhus L E (1994) Vimentin's tail interacts with actin-containing structures in vivo. J Cell Sci 107:1609-1622.). […]
Quantity: activation at 1000 µM (%)
# unit: % | format: bare number

Some solved cases for reference:
# Compound, Units Label, activation at 1000 µM
rows = [
    ("C[N+](C)(C)CCCCCC[N+](C)(C)C", "%", 10),
    ("CN1CCCC1c1cccnc1 (stereo not shown)", "%", 12),
    ("C[C@@H]1O[C@H](C[N+](C)(C)C)C[C@H]1O", "%", 0),
]

Prompt line: Need activation at 1000 µM of `NCCc1c[nH]c2ccc(O)cc12` , thanks.
Response line: 0

* * *

# Assayed System: ACC-1G6.4 channel (Caenorhabditis elegans, UniProt Q21005)
# Construct: Agonist: percentage of maximal acetylcholine-elicited response; other: compound at 0.1 mM; Agonist: percentage of maximal acetylcholine-elicited response; other: compound at 0.2 mM; other: compound at 0.4 mM; other: compound at 0.8 mM; Agonist: percentage of maxim
# Sequence (Q21005 whole entry, looked up): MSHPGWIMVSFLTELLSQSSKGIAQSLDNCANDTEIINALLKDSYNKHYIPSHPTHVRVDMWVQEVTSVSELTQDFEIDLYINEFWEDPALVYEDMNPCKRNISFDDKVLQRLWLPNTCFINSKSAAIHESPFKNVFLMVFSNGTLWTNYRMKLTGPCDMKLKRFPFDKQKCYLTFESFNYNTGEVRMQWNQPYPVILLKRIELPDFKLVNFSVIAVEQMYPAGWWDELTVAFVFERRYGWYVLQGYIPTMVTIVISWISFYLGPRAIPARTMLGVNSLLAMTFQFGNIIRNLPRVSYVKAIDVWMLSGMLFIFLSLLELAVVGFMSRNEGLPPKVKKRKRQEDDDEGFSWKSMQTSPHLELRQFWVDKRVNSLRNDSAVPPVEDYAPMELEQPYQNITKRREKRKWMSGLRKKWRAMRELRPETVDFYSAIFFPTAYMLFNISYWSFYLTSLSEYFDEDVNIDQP
# Assay Comment: Two-electrode voltage-clamp of Xenopus oocytes expressing ACC-1G6.4 homomeric channel
# Format: cell-based, C. elegans
Quantity: EC50

Prompt line: Need EC50 of CN1CCCC1c1cccnc1 (stereo not shown) , thanks.
Response line: ~1000 µM

* * *

# Assayed System: ACC-2D6.3 channel (Caenorhabditis elegans, UniProt Q18812)
# Assay Comment: cell-based
# Protocol Conditions: IC50 (block of channel)
Quantity: IC50
Form field: result (number plus unit)

Prompt line: Need IC50 of `O=C1C[C@@H]2OCC=C3CN4CC[C@]56c7ccccc7N1[C@H]5[C@H]2[C@H]3C[C@H]46` , thanks.
Response line: 2.95 µM

* * *

# Assayed System: ACC-2D6.3 channel (Caenorhabditis elegans)
# Assay Comment: cell-based
# Protocol Conditions: EC50 (agonist), oocytes clamped at −80 mV; wild type
# Excerpt: For capped cRNA synthesis, cDNAs were subcloned into the pT7N vector, which contains a T7 RNA polymerase promoter, the 5′- and 3′-UTR of Xenopus laevis beta-globin, and an encoded poly(A+) tail (Cary R B, Klymkowsky M W, Evans R M, Domingo A, Dent J A, Backhus L E (1994) Vimentin's tail interacts with actin-containing structures in vivo. J Cell Sci 107:1609-1622.). […]
// reported EC50 per item
# unit: µM | format: bare number

# Compound, EC50, µM
records = [
    ("COC(=O)C1=CCCN(C)C1 [arecoline]", 754),
]

Prompt line: // map CC(=O)OCC[N+](C)(C)C [ACh, acetylcholine] to recorded EC50 (system: ACC-2D6.3 channel (Caenorhabditis elegans))
Response line: 9.54

* * *

# Assayed System: ACC-1G6.4 channel (Caenorhabditis elegans)
# Construct: Agonist: percentage of maximal acetylcholine-elicited response; other: compound at 0.1 mM; Agonist: percentage of maximal acetylcholine-elicited response; other: compound at 0.2 mM; other: compound at 0.4 mM; other: compound at 0.8 mM; Agonist: percentage of maxim
# Assay Comment: Two-electrode voltage-clamp of Xenopus oocytes expressing ACC-1G6.4 homomeric channel
# Type: cell-based, C. elegans
# Protocol Conditions: Table 4; order of magnitude; read-out: IC50 (range)
# Source text: For capped cRNA synthesis, cDNAs were subcloned into the pT7N vector, which contains a T7 RNA polymerase promoter, the 5′- and 3′-UTR of Xenopus laevis beta-globin, and an encoded poly(A+) tail (Cary R B, Klymkowsky M W, Evans R M, Domingo A, Dent J A, Backhus L E (1994) Vimentin's tail interacts with actin-containing structures in vivo. J Cell Sci 107:1609-1622.). […]
Quantity: IC50

Prompt line: Need IC50 of CO[C@H]1CC=C2CCN3CCC4=C(CC(=O)OC4)[C@]23C1 [dβe, dihydro-β-erythroidine] , thanks.
Response line: ~100 µM

* * *

# Assayed System: ACC-1G6.4 channel (Caenorhabditis elegans, UniProt Q21005)
# Construct: Agonist: percentage of maximal acetylcholine-elicited response; other: compound at 0.1 mM; Agonist: percentage of maximal acetylcholine-elicited response; other: compound at 0.2 mM; other: compound at 0.4 mM; other: compound at 0.8 mM; Agonist: percentage of maxim
# Assay Comment: Two-electrode voltage-clamp of Xenopus oocytes expressing ACC-1G6.4 homomeric channel
# Assay type: cell-based, C. elegans
# Protocol Conditions: Table 4; order of magnitude; read-out: IC50 (range or bound)
pIC50: −log10 of the molar value.
Quantity: pIC50

Prompt line: Need pIC50 of `COc1cc2c3cc1Oc1cc(ccc1O)C[C@@H]1c4c(cc(OC)c(O)c4Oc4ccc(cc4)C[C@@H]3N(C)CC2)CC[N+]1(C)C` , thanks.
Response line: > 4.70

* * *

# Assayed System: ACC-1G6.4 channel (Caenorhabditis elegans, UniProt Q21005)
# Construct: Agonist: percentage of maximal acetylcholine-elicited response; other: compound at 0.1 mM; Agonist: percentage of maximal acetylcholine-elicited response; other: compound at 0.2 mM; other: compound at 0.4 mM; other: compound at 0.8 mM; Agonist: percentage of maxim
# Assay Comment: Two-electrode voltage-clamp of Xenopus oocytes expressing ACC-1G6.4 homomeric channel
# Format: cell-based, C. elegans
# Protocol Conditions: IC50 (range or bound)
Quantity: IC50

Prompt line: Need IC50 of `O=C1C[C@@H]2OCC=C3CN4CC[C@]56c7ccccc7N1[C@H]5[C@H]2[C@H]3C[C@H]46` , thanks.
Response line: ~10 µM

* * *

# Assayed System: ACC-1G6.4 channel (Caenorhabditis elegans, UniProt Q21005)
# Construct: Agonist: percentage of maximal acetylcholine-elicited response; other: compound at 0.1 mM; Agonist: percentage of maximal acetylcholine-elicited response; other: compound at 0.2 mM; other: compound at 0.4 mM; other: compound at 0.8 mM; Agonist: percentage of maxim
# Assay Comment: Two-electrode voltage-clamp of Xenopus oocytes expressing ACC-1G6.4 homomeric channel
# Type: cell-based, C. elegans
# Protocol Conditions: IC50 (block of channel)
Quantity: IC50 (µM)
# unit: µM | format: bare number

Prompt line: Need IC50 of O=C1C[C@@H]2OCC=C3CN4CC[C@]56c7ccccc7N1[C@H]5[C@H]2[C@H]3C[C@H]46 [strychnine] , thanks.
Response line: 4.61
